Items are presented alongside their recorded IC50 (µM), pseudotyped HIV-1BaL infection of HOS.CD4.CCR5 cells.
Molecular target: HIV-1BaL envelope glycoprotein on pseudotyped virus (HIV-1 strain BaL)
Experiment: cell-based or functional assay
Where no end group is shown, it is not given here. [ ]: non-standard residue; d: D form.
Could you give me the number in µM? Just the number is fine.

For orientation, consider the following solved cases.
BINDER	UOM	MEASUREMENT
FNNI[Azp‑triazole‑ferrocene]WS-NH2 (Rink amide resin; also called FNNIPWS) [UM28]	µM	13
RNNI[Azp‑triazole‑ferrocene]WS (also called RNNIPWS) [UM22]	µM	11
[Azp‑triazole‑ferrocene]WSEAMM (also called PWSEAMM) [UM10]	µM	35

## Task Sample INNI[Azp‑triazole‑ferrocene]WS-NH2 (Rink amide resin; also called INNIPWS) [UM21] — what was its IC50 (µM), pseudotyped HIV-1BaL infection of HOS.CD4.CCR5 cells?
## Result 7.4

## Task Sample ENNI[Azp‑triazole‑ferrocene]WS-NH2 (Rink amide resin; also called ENNIPWS) [UM23] — what was its IC50 (µM), pseudotyped HIV-1BaL infection of HOS.CD4.CCR5 cells?
## Result 5.8

## Task Sample RINNI[Azp‑triazole‑ferrocene]WS-NH2 (Rink amide resin) [UM11] — what was its IC50 (µM), pseudotyped HIV-1BaL infection of HOS.CD4.CCR5 cells?
## Result 4

## Task Sample KNNI[Azp‑triazole‑ferrocene]WS (also called KNNIPWS) [UM27] — what was its IC50 (µM), pseudotyped HIV-1BaL infection of HOS.CD4.CCR5 cells?
## Result 23

## Task Sample EINNI[Azp‑triazole‑ferrocene]WS-NH2 (Rink amide resin) [UM13] — what was its IC50 (µM), pseudotyped HIV-1BaL infection of HOS.CD4.CCR5 cells?
## Result 1.2
